Data origin, for the record: ChEMBL document CHEMBL3351332

Target: UniProt:P21554
Experiment: Antagonist activity at human CB1 receptor stably expressed in RD-HGA16 cells assessed as inhibition of CP55,940-induced calcium mobilization after 15 mins by FLIPR assay
Observable: pIC50
To interpret pIC50, take it as minus log10 of a concentration measured in moles per litre.

Example entries and their recorded answers appear below.
CCN(C)c1cccc(-c2cccc(NC(=O)Nc3ccc(Cl)cc3)c2)n1
7.27
CCCCCNc1cccc(-c2cccc(NC(=O)Nc3ccc(Cl)cc3)c2)n1
6.06
O=C(Nc1ccc(Br)cc1)Nc1cccc(-c2cccc(N3CCCC3)n2)c1
7.01
O=C(Nc1cccc(-c2cccc(N3CCCC3)n2)c1)Nc1ccc(Cl)c(Cl)c1
6.79

Form field: pIC50 recorded for `CN(C)c1ccc(NC(=O)Nc2cccc(-c3cccc(N4CCCC4)n3)c2)cc1` with UniProt:P21554 (enter value)
5.79

====

Quick reference: Activity of the listed items.
Target: Cannabinoid receptor 1 (Homo sapiens, UniProt P21554)
Sequence (P21554 whole entry): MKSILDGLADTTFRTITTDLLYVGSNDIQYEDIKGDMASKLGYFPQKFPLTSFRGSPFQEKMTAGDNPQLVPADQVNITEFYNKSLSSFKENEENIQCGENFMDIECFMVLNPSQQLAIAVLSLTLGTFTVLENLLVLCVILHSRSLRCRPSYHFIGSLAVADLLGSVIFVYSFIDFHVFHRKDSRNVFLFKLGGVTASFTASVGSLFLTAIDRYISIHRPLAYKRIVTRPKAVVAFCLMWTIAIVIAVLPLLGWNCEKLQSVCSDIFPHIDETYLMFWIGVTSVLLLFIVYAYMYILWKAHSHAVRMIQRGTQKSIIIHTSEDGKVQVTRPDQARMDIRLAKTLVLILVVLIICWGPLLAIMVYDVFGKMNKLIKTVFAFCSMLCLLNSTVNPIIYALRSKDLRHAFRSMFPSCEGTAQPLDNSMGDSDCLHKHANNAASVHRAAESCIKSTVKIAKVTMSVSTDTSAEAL
Assay: Agonist activity at human CB1 receptor stably expressed in RD-HGA16 cells assessed as calcium mobilization at 10000 nM after 15 mins by FLIPR assay relative to CP55,940
Assay type: functional, cell-based

Example entries and their recorded answers appear below.
CCCNc1cccc(-c2cccc(NC(=O)Nc3ccc(Cl)cc3)c2)n1
19.6%
O=C(Nc1cccc(-c2cccc(N3CCCC3)n2)c1)Nc1ccc(Cl)c(Cl)c1
< 15%
Cc1cc(C)cc(NC(=O)Nc2cccc(-c3cccc(N4CCCC4)n3)c2)c1
< 15%

GET /values?readout=Activity&item= `CCNc1cccc(-c2cccc(NC(=O)Nc3ccc(Cl)cc3)c2)n1`
< 15%

GET /values?readout=Activity&item= `CCCCNc1cccc(-c2cccc(NC(=O)Nc3ccc(Cl)cc3)c2)n1`
26.5%

GET /values?readout=Activity&item= `CCCCN(C)c1cccc(-c2cccc(NC(=O)Nc3ccc(Cl)cc3)c2)n1`
22.1%

GET /values?readout=Activity&item= `O=C(Nc1cccc(-c2cccc(N3CCCC3)n2)c1)Nc1ccc2ccccc2c1`
< 15%

GET /values?readout=Activity&item= `O=C(Nc1ccc(Cl)cc1)Nc1cccc(-c2cccc(N3CCCC3)n2)c1`
28.2%

GET /values?readout=Activity&item= `O=C(Nc1ccc(Cl)cc1)Nc1cccc(-c2cccc(NC3CCCC3)n2)c1`
35%

====

Target: Cannabinoid receptor 1 (Homo sapiens)
Assay: Antagonist activity at human CB1 receptor stably expressed in RD-HGA16 cells assessed as inhibition of CP55,940-induced calcium mobilization after 15 mins by FLIPR assay
Observable: log10 of IC50 (log10 of the value in µM)
For clarity, the numbers are log10 values of IC50 expressed in µM.

O=C(Nc1cc(Cl)cc(Cl)c1)Nc1cccc(-c2cccc(N3CCCC3)n2)c1
-0.15

GET /values?readout=log10 of IC50&item= `CCCCN(C)c1cccc(-c2cccc(NC(=O)Nc3ccc(Cl)cc3)c2)n1`
-0.98

GET /values?readout=log10 of IC50&item= `Cc1ccc(NC(=O)Nc2cccc(-c3cccc(N4CCCC4)n3)c2)cc1`
-0.69

GET /values?readout=log10 of IC50&item= `O=C(Nc1ccccc1)Nc1cccc(-c2cccc(N3CCCC3)n2)c1`
-0.78

GET /values?readout=log10 of IC50&item= `Cc1cc(C)cc(NC(=O)Nc2cccc(-c3cccc(N4CCCC4)n3)c2)c1`
0.27

GET /values?readout=log10 of IC50&item= `CCCN(CCC)c1cccc(-c2cccc(NC(=O)Nc3ccc(Cl)cc3)c2)n1`
-0.43

GET /values?readout=log10 of IC50&item= `O=C(Nc1ccc(Cl)cc1)Nc1cccc(-c2cccc(N3CCCCC3)n2)c1`
-1.02

====

Target: Cannabinoid receptor 2 (Homo sapiens, UniProt P34972)
Sequence (P34972 whole entry): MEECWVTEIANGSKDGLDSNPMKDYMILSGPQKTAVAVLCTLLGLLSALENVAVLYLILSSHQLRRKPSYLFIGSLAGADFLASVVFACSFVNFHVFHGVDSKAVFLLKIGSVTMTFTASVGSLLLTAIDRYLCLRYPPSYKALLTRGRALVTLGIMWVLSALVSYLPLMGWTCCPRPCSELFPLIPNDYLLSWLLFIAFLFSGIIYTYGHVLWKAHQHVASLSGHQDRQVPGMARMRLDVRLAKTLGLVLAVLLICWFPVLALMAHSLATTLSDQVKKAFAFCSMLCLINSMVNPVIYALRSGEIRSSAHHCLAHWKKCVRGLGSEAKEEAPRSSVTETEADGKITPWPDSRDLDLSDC
Assay: Antagonist activity at human CB2 receptor stably expressed in CHO-RD-HGA16 cells assessed as inhibition of CP55,940-induced calcium mobilization at 10000 nM after 15 mins by FLIPR assay
Type: functional, cell-based
Observable: inhibition

Example entries and their recorded answers appear below.
O=C(Nc1cccc(-c2cccc(N3CCCC3)n2)c1)Nc1ccc2c(c1)OCO2
< 35%
Cc1ccc(NC(=O)Nc2cccc(-c3cccc(N4CCCC4)n3)c2)cc1
< 35%
Cc1cccc(C)c1NC(=O)Nc1cccc(-c2cccc(N3CCCC3)n2)c1
< 35%
O=C(Nc1cccc(-c2cccc(N3CCCC3)n2)c1)Nc1cccc2ccccc12
< 35%

Okay, next one:
Form field: inhibition recorded for `O=C(Nc1ccc(Br)cc1)Nc1cccc(-c2cccc(N3CCCC3)n2)c1` with Cannabinoid receptor 2 (Homo sapiens, UniProt P34972) (enter value)
< 35%

====

Molecular target: UniProtKB P34972
Assay: Antagonist activity at human CB2 receptor stably expressed in CHO-RD-HGA16 cells assessed as inhibition of CP55,940-induced calcium mobilization at 10000 nM after 15 mins by FLIPR assay
Assay type: functional, cell-based
Observable: inhibition

Example entries and their recorded answers appear below.
CCN(C)c1cccc(-c2cccc(NC(=O)Nc3ccc(Cl)cc3)c2)n1
< 35%
CC(C)c1ccccc1NC(=O)Nc1cccc(-c2cccc(N3CCCC3)n2)c1
< 35%
CCNc1cccc(-c2cccc(NC(=O)Nc3ccc(Cl)cc3)c2)n1
< 35%
O=C(Nc1ccc([N+](=O)[O-])cc1)Nc1cccc(-c2cccc(N3CCCC3)n2)c1
< 35%

GET /values?readout=inhibition&item= `CCCNc1cccc(-c2cccc(NC(=O)Nc3ccc(Cl)cc3)c2)n1`
< 35%

GET /values?readout=inhibition&item= `CN(C)c1ccc(NC(=O)Nc2cccc(-c3cccc(N4CCCC4)n3)c2)cc1`
< 35%

GET /values?readout=inhibition&item= `COc1ccc(NC(=O)Nc2cccc(-c3cccc(N4CCCC4)n3)c2)cc1`
< 35%

GET /values?readout=inhibition&item= `CCN(CC)c1cccc(-c2cccc(NC(=O)Nc3ccc(Cl)cc3)c2)n1`
< 35%

GET /values?readout=inhibition&item= `CCCCNc1cccc(-c2cccc(NC(=O)Nc3ccc(Cl)cc3)c2)n1`
< 35%

GET /values?readout=inhibition&item= `CCCN(CCC)c1cccc(-c2cccc(NC(=O)Nc3ccc(Cl)cc3)c2)n1`
< 35%

====

Target: Cannabinoid receptor 1 (Homo sapiens, UniProt P21554)
Test: Agonist activity at human CB1 receptor stably expressed in RD-HGA16 cells assessed as calcium mobilization at 10000 nM after 15 mins by FLIPR assay relative to CP55,940
Format: functional, cell-based
Quick reference: Activity of the listed items.

Form field: Activity recorded for `CCN(CC)c1cccc(-c2cccc(NC(=O)Nc3ccc(Cl)cc3)c2)n1` with Cannabinoid receptor 1 (Homo sapiens, UniProt P21554) (enter value)
< 15%

====

Quick reference: pEC50 of the listed items.
Biological target: Cannabinoid receptor 1 (Homo sapiens, UniProt P21554)
Experiment: Displacement of [3H]CP55,940 from human CB1 receptor expressed in HEK293 cells after 1 hr by scintillation counting
Assay type: cell-based
To interpret pEC50, take it as minus log10 of a concentration measured in moles per litre.

Example entries and their recorded answers appear below.
O=C(Nc1ccc(F)cc1)Nc1cccc(-c2cccc(N3CCCC3)n2)c1
6.68
CN(C)c1cccc(-c2cccc(NC(=O)Nc3ccc(Cl)cc3)c2)n1
6.18
O=C(Nc1ccc(Cl)nc1)Nc1cccc(-c2cccc(N3CCCC3)n2)c1
6.39
CCCCNc1cccc(-c2cccc(NC(=O)Nc3ccc(Cl)cc3)c2)n1
5.82

Okay, next one:
GET /values?readout=pEC50&item= `N#Cc1ccc(NC(=O)Nc2cccc(-c3cccc(N4CCCC4)n3)c2)cc1`
7.26

====

Biological target: Cannabinoid receptor 1 (Homo sapiens, UniProt P21554)
Assay: Displacement of [3H]CP55,940 from human CB1 receptor expressed in HEK293 cells after 1 hr by scintillation counting relative to control
Type: cell-based
Observable: Emax (%)
Give just the number in %; leave the unit off.

Example entries and their recorded answers appear below.
O=C(Nc1ccc(Cl)cc1)Nc1cccc(-c2cccc(N3CCCC3)n2)c1
174
O=C(Nc1ccc(Cl)nc1)Nc1cccc(-c2cccc(N3CCCC3)n2)c1
196
O=C(Nc1ccc(Cl)cc1)Nc1cccc(-c2cccc(N3CCCCC3)n2)c1
132
CCCCNc1cccc(-c2cccc(NC(=O)Nc3ccc(Cl)cc3)c2)n1
161

Form field: Emax recorded for `O=C(Nc1ccc(F)cc1)Nc1cccc(-c2cccc(N3CCCC3)n2)c1` with Cannabinoid receptor 1 (Homo sapiens, UniProt P21554) (enter value)
172

Form field: Emax recorded for `N#Cc1ccc(NC(=O)Nc2cccc(-c3cccc(N4CCCC4)n3)c2)cc1` with Cannabinoid receptor 1 (Homo sapiens, UniProt P21554) (enter value)
172

Form field: Emax recorded for `CN(C)c1cccc(-c2cccc(NC(=O)Nc3ccc(Cl)cc3)c2)n1` with Cannabinoid receptor 1 (Homo sapiens, UniProt P21554) (enter value)
184

====

Target: Cannabinoid receptor 1 (Homo sapiens, UniProt P21554)
Assay: Antagonist activity at human CB1 receptor stably expressed in RD-HGA16 cells assessed as inhibition of CP55,940-induced calcium mobilization after 15 mins by FLIPR assay
Quick reference: log10 IC50 of the listed items.
For clarity, the numbers are log10 values of IC50 expressed in nM.

GET /values?readout=log10 IC50&item= `O=C(Nc1ccc(Cl)nc1)Nc1cccc(-c2cccc(N3CCCC3)n2)c1`
2.13

GET /values?readout=log10 IC50&item= `CC(=O)Nc1cccc(-c2cccc(NC(=O)Nc3ccc(Cl)cc3)c2)n1`
2.40

GET /values?readout=log10 IC50&item= `CNc1cccc(-c2cccc(NC(=O)Nc3ccc(Cl)cc3)c2)n1`
2.50

GET /values?readout=log10 IC50&item= `O=C(Nc1ccc([N+](=O)[O-])cc1)Nc1cccc(-c2cccc(N3CCCC3)n2)c1`
2.00

GET /values?readout=log10 IC50&item= `CCCCCCNc1cccc(-c2cccc(NC(=O)Nc3ccc(Cl)cc3)c2)n1`
3.13

GET /values?readout=log10 IC50&item= `CCN(CC)c1cccc(-c2cccc(NC(=O)Nc3ccc(Cl)cc3)c2)n1`
2.10

GET /values?readout=log10 IC50&item= `COc1ccc(NC(=O)Nc2cccc(-c3cccc(N4CCCC4)n3)c2)cc1`
2.28

GET /values?readout=log10 IC50&item= `CCCCNc1cccc(-c2cccc(NC(=O)Nc3ccc(Cl)cc3)c2)n1`
1.97
